procedure details: Half life in beagle dog at 1 mg/kg, iv by LC/MS/MS method
Assay type: ADME, organism-based, Canis lupus familiaris
condition details: in vivo
reported property: half-life (h)
Report the value in h with no unit label.

Report half-life for N#Cc1ccc(N2CC[C@@H](Nc3c(C(N)=O)cnc4[nH]ccc34)[C@@H](F)C2)nc1 please. 4.2

---

procedure details: Intrinsic clearance in rat liver microsomes at 0.2 uM in presence of NADPH generating system by LC/MS/MS method
Type: ADME
condition details: read-out: CLH
reported property: CLint scaled at 0.2 µM (L/h/kg)
Report the value in L/h/kg with no unit label.

Report CLint scaled at 0.2 µM for N#Cc1ccc(N2CCC(Nc3c(C(N)=O)cnc4[nH]ccc34)CC2)nc1 please. 12.2

Next:
Report CLint scaled at 0.2 µM for N#Cc1ccc(N2CCC(Nc3c(C(N)=O)cnc4[nH]ccc34)CC2)cc1 please. 15.7

Another: N#Cc1ccc(N2CC[C@@H](Nc3c(C(N)=O)cnc4[nH]ccc34)[C@@H](F)C2)nc1 1.65

---

procedure details: AUC (0 to 24 hrs) in Sprague-Dawley rat at 1 mg/kg, iv by LC/MS/MS method
Assay type: ADME, organism-based
Design: dose 1 mg/kg, time < 24 hr, route intravenous
condition details: in vivo
reported property: AUC(0-t) at 24 h (µg·h/mL)
Report the value in µg·h/mL with no unit label.

Report AUC(0-t) at 24 h for N#Cc1ccc(N2CC[C@@H](Nc3c(C(N)=O)cnc4[nH]ccc34)[C@@H](F)C2)nc1 please. 3.2

---

procedure details: Cmax in Sprague-Dawley rat at 3 mg/kg, po by LC/MS/MS method
Format: ADME, organism-based
Parameters: dose 3 mg/kg, route oral
condition details: in vivo
reported property: Cmax
Show the value, then the unit it is measured in.

Report Cmax for N#Cc1ccc(N2CC[C@@H](Nc3c(C(N)=O)cnc4[nH]ccc34)[C@@H](F)C2)nc1 please. 633 ng/mL

---

test system: Calcium/calmodulin-dependent protein kinase type II subunit alpha (Homo sapiens, UniProt Q9UQM7)
Sequence (Q9UQM7 whole entry): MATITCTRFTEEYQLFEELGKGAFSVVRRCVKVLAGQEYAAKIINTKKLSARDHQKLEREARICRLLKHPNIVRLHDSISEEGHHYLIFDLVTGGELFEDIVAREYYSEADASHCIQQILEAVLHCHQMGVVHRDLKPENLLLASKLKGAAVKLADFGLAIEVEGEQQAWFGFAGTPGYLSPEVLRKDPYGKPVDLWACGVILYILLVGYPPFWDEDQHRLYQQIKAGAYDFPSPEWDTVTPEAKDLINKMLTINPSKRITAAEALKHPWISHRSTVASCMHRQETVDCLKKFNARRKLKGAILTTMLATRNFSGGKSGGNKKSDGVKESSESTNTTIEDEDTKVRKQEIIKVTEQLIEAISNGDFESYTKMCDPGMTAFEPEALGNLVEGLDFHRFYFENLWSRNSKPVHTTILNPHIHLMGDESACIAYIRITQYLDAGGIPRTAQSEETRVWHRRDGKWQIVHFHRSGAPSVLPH
procedure details: Inhibition of CaMK2a (unknown origin)
reported property: IC50 (µM)
Report the value in µM with no unit label.

Report IC50 for N#Cc1ccc(N2CC[C@@H](Nc3c(C(N)=O)cnc4[nH]ccc34)[C@@H](F)C2)nc1 please. 1

---

procedure details: AUC (0 to 24 hrs) in cynomolgus monkey at 1 mg/kg, iv by LC/MS/MS method
Assay type: ADME, organism-based, Macaca fascicularis
Set-up: time < 24 hr, dose 1 mg/kg, route intravenous
condition details: in vivo
reported property: AUC(0-t) at 24 h (ng·h/mL)
Report the value in ng·h/mL with no unit label.

Report AUC(0-t) at 24 h for N#Cc1ccc(N2CC[C@@H](Nc3c(C(N)=O)cnc4[nH]ccc34)[C@@H](F)C2)nc1 please. 4490

---

test system: Tyrosine-protein kinase ABL1 (Homo sapiens)
Sequence (P00519 whole entry): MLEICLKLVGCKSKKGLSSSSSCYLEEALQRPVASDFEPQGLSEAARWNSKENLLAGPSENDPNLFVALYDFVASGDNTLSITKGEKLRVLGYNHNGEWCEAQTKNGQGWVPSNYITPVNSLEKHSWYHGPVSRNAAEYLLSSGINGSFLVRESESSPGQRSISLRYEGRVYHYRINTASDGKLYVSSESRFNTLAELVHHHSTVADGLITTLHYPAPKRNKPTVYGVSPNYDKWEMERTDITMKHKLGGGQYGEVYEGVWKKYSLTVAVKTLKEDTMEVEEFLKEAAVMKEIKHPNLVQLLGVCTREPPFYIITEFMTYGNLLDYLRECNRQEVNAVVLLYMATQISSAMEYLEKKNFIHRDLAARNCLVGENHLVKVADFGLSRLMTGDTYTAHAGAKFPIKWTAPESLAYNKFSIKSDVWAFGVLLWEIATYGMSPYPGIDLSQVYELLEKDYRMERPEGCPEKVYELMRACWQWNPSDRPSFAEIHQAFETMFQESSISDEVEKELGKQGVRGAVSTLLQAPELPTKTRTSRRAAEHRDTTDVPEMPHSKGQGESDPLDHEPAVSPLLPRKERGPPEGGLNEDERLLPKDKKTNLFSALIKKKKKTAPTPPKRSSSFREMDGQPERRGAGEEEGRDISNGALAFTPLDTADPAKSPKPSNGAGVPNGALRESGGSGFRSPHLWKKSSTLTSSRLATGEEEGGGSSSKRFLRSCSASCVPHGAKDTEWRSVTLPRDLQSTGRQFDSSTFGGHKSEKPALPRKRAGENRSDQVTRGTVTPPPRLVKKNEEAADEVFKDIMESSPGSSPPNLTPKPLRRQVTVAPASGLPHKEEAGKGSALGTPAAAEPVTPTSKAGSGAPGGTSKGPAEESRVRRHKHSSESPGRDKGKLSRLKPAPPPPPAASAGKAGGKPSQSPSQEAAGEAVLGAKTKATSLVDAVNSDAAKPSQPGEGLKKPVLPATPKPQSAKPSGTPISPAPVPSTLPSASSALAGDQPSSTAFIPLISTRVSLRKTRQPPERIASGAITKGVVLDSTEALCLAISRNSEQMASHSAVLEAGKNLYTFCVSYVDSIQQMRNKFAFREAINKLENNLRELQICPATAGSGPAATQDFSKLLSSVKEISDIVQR
reported property: IC50

Report IC50 for N#Cc1ccc(N2CC[C@@H](Nc3c(C(N)=O)cnc4[nH]ccc34)[C@@H](F)C2)nc1 please. > 1000 nM

---

The listing below reports IC50 for compounds tested on Tyrosine-protein kinase JAK2 (Homo sapiens).
Sequence (O60674 whole entry): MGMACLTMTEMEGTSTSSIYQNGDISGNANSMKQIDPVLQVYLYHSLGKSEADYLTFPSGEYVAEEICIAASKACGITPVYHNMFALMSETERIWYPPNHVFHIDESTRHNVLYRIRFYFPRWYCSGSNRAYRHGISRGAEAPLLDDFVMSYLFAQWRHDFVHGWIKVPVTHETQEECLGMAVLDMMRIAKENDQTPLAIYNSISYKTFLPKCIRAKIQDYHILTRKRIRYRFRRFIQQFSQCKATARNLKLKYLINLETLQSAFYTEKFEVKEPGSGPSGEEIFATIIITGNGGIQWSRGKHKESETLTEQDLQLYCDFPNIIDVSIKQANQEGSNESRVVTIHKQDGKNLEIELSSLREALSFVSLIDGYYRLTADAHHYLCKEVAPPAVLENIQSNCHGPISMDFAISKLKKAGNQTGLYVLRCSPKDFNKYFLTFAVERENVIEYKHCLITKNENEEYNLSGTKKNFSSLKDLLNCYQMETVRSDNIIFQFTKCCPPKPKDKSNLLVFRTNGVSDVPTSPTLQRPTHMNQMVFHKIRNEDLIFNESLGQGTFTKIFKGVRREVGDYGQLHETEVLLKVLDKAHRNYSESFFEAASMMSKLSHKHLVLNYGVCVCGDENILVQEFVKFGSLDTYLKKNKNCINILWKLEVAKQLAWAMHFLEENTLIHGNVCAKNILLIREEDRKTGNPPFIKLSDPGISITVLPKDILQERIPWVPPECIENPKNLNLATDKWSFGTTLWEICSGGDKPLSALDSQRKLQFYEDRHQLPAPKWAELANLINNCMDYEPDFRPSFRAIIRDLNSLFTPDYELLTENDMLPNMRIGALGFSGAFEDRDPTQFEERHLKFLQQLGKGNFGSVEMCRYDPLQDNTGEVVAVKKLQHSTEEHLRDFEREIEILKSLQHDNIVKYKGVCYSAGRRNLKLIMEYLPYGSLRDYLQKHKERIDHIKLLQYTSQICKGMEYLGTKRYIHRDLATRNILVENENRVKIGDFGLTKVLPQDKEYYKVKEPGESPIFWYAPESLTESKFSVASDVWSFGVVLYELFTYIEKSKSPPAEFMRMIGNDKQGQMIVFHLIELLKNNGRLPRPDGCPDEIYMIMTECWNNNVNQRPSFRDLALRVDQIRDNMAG
Report the value in nM with no unit label.

Report IC50 for N#Cc1ccc(N2CCC(Nc3c(C(N)=O)cnc4[nH]ccc34)CC2)nn1 please. 12

Next:
Report IC50 for NC(=O)c1ccc(N2CCC(Nc3c(C(N)=O)cnc4[nH]ccc34)CC2)nc1 please. 41

Another: N#Cc1cccc(CN2CCC(Nc3c(C(N)=O)cnc4[nH]ccc34)CC2)c1 46

Another: N#Cc1ccc(N2CCC(Nc3c(C(N)=O)cnc4[nH]ccc34)CC2)cc1 49

Another: CS(=O)(=O)N1CCC(Nc2c(C(N)=O)cnc3[nH]ccc23)CC1 190

Reference for the values: ChEMBL document CHEMBL3593212
